Recorded values, source patent US20230159510A1.

- Tested on: HCT116 WT cells
- assay details: HCT116 proliferation assay, WT cells (CellTiter-Glo, 6 days)
- Assay type: cell-based
- run parameters: Homo sapiens, HCT-116, 144 h, read-out: Prolif_HCT116-WT IC50
readout label: IC50 (µM)

Use the examples below as a reference point.
INSERT INTO measurements (compound, recorded_value) VALUES
  ('Nc1nc2ncc(C(=O)N(Cc3ccc(C(F)(F)F)cn3)[C@@H]3CCCc4nccnc43)cc2cc1Br (single isomer, unassigned) [Example 467]', 0.248),
  ('Cc1cc2cc(C(=O)N(Cc3ccc(C(F)F)cn3)[C@H](C)c3ncccn3)ccc2nc1N [Example 508]', 1.7),
  ('Cc1cc2cc(C(=O)N(Cc3ccc(C(F)(F)F)cn3)[C@@H]3CCC[C@H]3C#N)ccc2nc1N (single isomer, unassigned) [Example 812]', 1.04),
  ('COCC(COC)N(Cc1ccc(C(F)(F)F)cn1)C(=O)c1ccc2nc(N)c(C)cc2c1 [Example 511]', 2.34),
  ('C[C@H](c1ncccc1F)N(Cc1ccc(C(F)(F)F)nn1)C(=O)c1ccc2nc(N)c(Br)cc2c1 [Example 737]', 6.8),
  ('Cc1cc2cc(C(=O)N(Cc3ccc(C(N)=O)cc3)Cc3ccc(C(F)(F)F)cn3)ccc2nc1N [Example 355]', 3.35),
  ('C[C@H](c1ncccn1)N(Cc1ccc(C(F)(F)F)cn1)C(=O)c1ccc2nc(N)c(I)cc2c1 (single isomer, unassigned) [Example 544]', 0.723);

P. Cc1cc2cc(C(=O)N(Cc3ccc(C(F)F)cn3)[C@H](C)c3cnn(C)n3)ccc2nc1N (single isomer, unassigned) [Example 532]
Q. Cc1cc2cc(C(=O)N(Cc3ccc(S(C)(=O)=O)cn3)[C@H](C)c3ncccc3F)ccc2nc1N [Example 541]
R. Cc1cc2cc(C(=O)N(Cc3ccc(NCC(F)(F)F)nn3)[C@H](C)c3ncccn3)ccc2nc1N [Example 378]
S. COC[C@@H](C1CC1)N(Cc1ccc(C(F)(F)F)cn1)C(=O)c1ccc2nc(N)c(C)cc2c1 (single isomer, unassigned) [Example 809]
Request: Order the items by recorded IC50; the first position goes to the largest value. Returns: the labels listed in the requested order.
Result: R, Q, P, S
(R: 6.96 µM, Q: 4.14 µM, P: 0.894 µM, S: 0.362 µM)

----------
- Test system: HCT116 WT cells
- assay details: HCT116 proliferation assay, WT cells (CellTiter-Glo, 6 days)
- Type: cell-based
- run parameters: Homo sapiens, HCT-116, 144 h, read-out: Prolif_HCT116-WT IC50
pIC50: −log10 of the molar value.
readout label: pIC50

Below: 4 molecules and their reported pIC50.
INSERT INTO results (molecule, recorded_value) VALUES
  ('Nc1nc2ccc(C(=O)N(Cc3ccc(C(F)(F)F)cn3)Cc3ncccn3)cc2cc1Br', '< 5.00'),
  ('COC[C@@H](C)N(Cc1ccc(C(F)(F)F)cn1)C(=O)c1ccc2nc(N)c(C)cc2c1C', '< 5.00'),
  ('C[C@H](c1ncccn1)N(Cc1ccc(Cl)nn1)C(=O)c1ccc2nc(N)c(Br)cc2c1', '< 5.00'),
  ('Cc1cc2cc(C(=O)N(Cc3cnc4[nH]ccc4c3)Cc3ccc(C(F)(F)F)cn3)ccc2nc1N', '< 6.00');

Request: State, in one line, measured pIC50 of Cc1cc2cc(C(=O)N(Cc3ccc(C(F)(F)F)cn3)C3CCCc4[nH]ccc43)ccc2nc1N (centres unmarked)
Result: < 5.82
